Source listed as patent US8410152B2.

molecular target: tau construct K18 (Homo sapiens, UniProt P10636); assay: STD-NMR determination of dissociation constant; format: binding; settings: STD-NMR titration data for proton I, 10 μM soluble K18, PBS/D2O, 295 K; read-out: KD of K18-BSc3094 complex
Sequence (P10636 with tags, fused parts or gaps isoform P10636-8 limits assumed): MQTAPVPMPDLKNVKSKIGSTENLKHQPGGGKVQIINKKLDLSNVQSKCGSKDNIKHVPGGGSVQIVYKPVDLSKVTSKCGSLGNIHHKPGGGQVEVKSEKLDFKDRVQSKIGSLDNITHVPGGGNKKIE
Experimental endpoint: pKd
Numbers only, as −log10 of the molar value.

Prompt: pKd of `O=C(NNc1nc(-c2ccc([N+](=O)[O-])cc2)cs1)c1ccc2[nH]cnc2c1` on tau construct K18 (Homo sapiens, UniProt P10636)?
Response: 4.21

----------
Give measured pIC50 for each item. Keep answers brief.
target: tau construct K19 (Homo sapiens); test: Thioflavine S (ThS) assay for aggregation of tau; type: biochemical; details: 10 μM tau construct K19, 2.5 μM heparin, over night at 37° C., ThS fluorescence; read-out: ID50 (the source's name)
pIC50: −log10 of the molar value.

Worked set:
> print(dat)
                            chemical.smiles  reported.result
1  O=C(NNc1nc(-c2ccc(Br)cc2)cs1)c1ccc2[nH]cnc2c1           < 3.70
2     COc1ccc(-c2csc(NNC(=O)N3CCCCC3)n2)cc1           < 3.70

Please report pIC50 for every entry that follows.
1. O=C(NNc1nc(-c2ccc(Br)cc2)cs1)c1ccc2ccccc2c1
2. O=C(NNc1nc(-c2cc3ccccc3oc2=O)cs1)c1ccc(-c2ccccc2)cc1
3. O=C(NNc1nc(-c2ccc(Br)cc2)cs1)c1ccc2c(c1)OCO2
4. O=C(NNc1nc(-c2ccc(N3CCCC3)cc2)cs1)c1cccnc1
5. O=C(NNc1nc(-c2ccccc2)cs1)c1cccs1
6. O=C(NNc1nc(-c2cc3ccccc3oc2=O)cs1)c1ccc(F)cc1

Response:
["< 3.70", "< 3.70", "< 3.70", 5.70, 4.60, 4.33]

----------
test system: uninduced N2A cells; format: cell-based; settings: cell death as percent of LDH released into medium vs total LDH, compound 10 μM
For each entry below, report its LDH value.
Answers are plain numbers, in %.

Look over these answered cases.
> print(dat)
                            chemical.smiles  output.unit  reported.result
1          O=C(NNc1nc(-c2ccccc2)cs1)c1cccs1            %             14.8
2  O=C(NNc1nc(-c2ccc(Br)cc2)cs1)c1ccc2[nH]cnc2c1            %             11.5
3  Cc1nc(NNC(=O)c2ccc3[nH]cnc3c2)sc1-c1ccc(Br)cc1            %             −2.8
4     O=C(NNc1nc(-c2ccc(Br)cc2)cs1)c1cccnc1            %             13.6

Pending molecule:
Prompt: # query: LDH of entry `O=C(NNc1nc(-c2ccccc2)cs1)c1ccc(Cl)cc1`
Response: 34.3

----------
Target: tau construct K19 (Homo sapiens, UniProt P10636)
Sequence (P10636 with tags, fused parts or gaps isoform P10636-2 limits assumed): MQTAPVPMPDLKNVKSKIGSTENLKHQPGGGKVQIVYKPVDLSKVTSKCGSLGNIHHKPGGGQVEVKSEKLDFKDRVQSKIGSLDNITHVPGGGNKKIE
Assay: Thioflavine S (ThS) assay for aggregation of tau
Type: biochemical
Details: 10 μM tau construct K19, 2.5 μM heparin, ThS fluorescence
Experimental: Thioflavine S (ThS) Assay for aggregation of tau: 10 μM of the tau construct K19 were incubated with compounds in a concentration range from 1 nM up to 200 μM in the presence of 2.5 μM heparin in 50 mM NH4Ac buffer over night at 37° C. After addition of 20 μM ThS the signal was measured at 521 nm (emission) at an excitation wavelength of 440 nm. The results of this assay are presented in the IC50 column and DC50 column of Table 1 below.
Give DC50 for every item shown.

# per-item lookup of DC50; items listed below
1. N#Cc1ccc(-c2csc(NNC(=O)c3cc4ccccc4[nH]3)n2)cc1 [Comp. 57]
2. O=C(NNc1nc(-c2ccc(-c3ccccc3)cc2)cs1)c1cc2ccccc2[nH]1 [Comp. 58]
3. CC(C)COc1ccc(-c2csc(NNC(=O)c3cc4ccccc4[nH]3)n2)cc1 [Comp. 56]

Response:
["> 200 µM", "> 200 µM", "> 200 µM"]
